Known IC50 of a selection of compounds
- target-or-test-system: HDAC3 (Homo sapiens (Human))
- Sequence (O15379 whole entry): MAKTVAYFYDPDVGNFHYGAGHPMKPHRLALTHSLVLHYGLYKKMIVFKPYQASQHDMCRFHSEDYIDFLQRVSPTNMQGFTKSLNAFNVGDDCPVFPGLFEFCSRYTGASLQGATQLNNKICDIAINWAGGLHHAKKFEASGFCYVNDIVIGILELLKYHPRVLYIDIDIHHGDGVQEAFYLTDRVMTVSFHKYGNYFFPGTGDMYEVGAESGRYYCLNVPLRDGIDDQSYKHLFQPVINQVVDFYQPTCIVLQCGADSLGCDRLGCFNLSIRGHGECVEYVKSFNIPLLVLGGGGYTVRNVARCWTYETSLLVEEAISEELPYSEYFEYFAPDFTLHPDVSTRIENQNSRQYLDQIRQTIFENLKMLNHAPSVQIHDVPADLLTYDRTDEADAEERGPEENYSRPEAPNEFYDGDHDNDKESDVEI
- Sequence (Q9Y618 395-489 partner): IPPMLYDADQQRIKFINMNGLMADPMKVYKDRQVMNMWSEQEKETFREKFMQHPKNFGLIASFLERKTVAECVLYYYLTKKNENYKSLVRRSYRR
- procedure-text: HDAC enzyme assay, HDAC3
- condition: read-out: HDAC3 IC50
// note: answer is a bare numeric in nM

O=C(NO)c1cnc(NC2(c3ccccc3Cl)CC2)nc1
41
O=C(NO)c1cnc(NC2(c3ccc(C(F)(F)F)cc3)CC2)nc1
344
Cc1ccc(C2(Nc3ncc(C(=O)NO)cn3)CC2)cc1
157
O=C(NO)c1cnc(NC2(c3ccc(F)cc3)CCCCC2)nc1
13500

// IC50 lookup, key: O=C(NO)c1cnc(NC2(c3ccccc3F)CC2)nc1
22

###

- target-or-test-system: HDAC6 (Homo sapiens (Human), UniProt Q9UBN7)
- Sequence (Q9UBN7 whole entry): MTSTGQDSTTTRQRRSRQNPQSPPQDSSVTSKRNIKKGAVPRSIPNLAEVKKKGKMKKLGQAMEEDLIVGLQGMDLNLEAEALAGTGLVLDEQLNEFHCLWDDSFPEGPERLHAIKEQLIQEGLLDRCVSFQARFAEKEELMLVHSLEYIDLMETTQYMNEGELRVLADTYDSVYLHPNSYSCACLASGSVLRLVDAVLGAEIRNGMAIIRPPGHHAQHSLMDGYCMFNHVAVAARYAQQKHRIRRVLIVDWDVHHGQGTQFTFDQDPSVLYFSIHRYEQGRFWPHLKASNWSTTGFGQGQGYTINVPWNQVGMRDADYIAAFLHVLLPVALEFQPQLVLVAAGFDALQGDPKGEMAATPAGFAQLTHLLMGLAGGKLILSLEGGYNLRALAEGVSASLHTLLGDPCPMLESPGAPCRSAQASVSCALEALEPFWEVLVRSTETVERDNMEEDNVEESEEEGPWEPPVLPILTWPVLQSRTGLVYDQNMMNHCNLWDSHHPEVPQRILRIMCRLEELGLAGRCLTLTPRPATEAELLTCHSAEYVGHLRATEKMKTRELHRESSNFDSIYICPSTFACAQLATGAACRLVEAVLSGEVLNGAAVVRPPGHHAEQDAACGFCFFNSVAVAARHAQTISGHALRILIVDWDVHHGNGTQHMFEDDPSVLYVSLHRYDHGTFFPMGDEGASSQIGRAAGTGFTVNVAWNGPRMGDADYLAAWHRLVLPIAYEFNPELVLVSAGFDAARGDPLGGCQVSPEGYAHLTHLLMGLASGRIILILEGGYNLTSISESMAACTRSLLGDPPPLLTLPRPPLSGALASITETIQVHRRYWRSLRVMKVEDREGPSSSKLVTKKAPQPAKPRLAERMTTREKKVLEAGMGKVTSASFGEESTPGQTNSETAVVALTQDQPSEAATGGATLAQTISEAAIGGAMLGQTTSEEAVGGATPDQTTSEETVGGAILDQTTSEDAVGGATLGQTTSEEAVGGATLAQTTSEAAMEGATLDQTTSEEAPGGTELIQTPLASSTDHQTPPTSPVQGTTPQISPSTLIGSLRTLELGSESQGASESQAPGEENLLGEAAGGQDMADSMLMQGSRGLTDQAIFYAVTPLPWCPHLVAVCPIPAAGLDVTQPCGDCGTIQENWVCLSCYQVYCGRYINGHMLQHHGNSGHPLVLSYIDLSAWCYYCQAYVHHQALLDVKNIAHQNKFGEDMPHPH
- condition: read-out: HDAC6 IC50
Sorting guide: entries reporting IC50 beneath 5 nM go in the Satisfied pile, the rest go in the Not satisfied pile.

C[C@H](Nc1ncc(C(=O)NO)cn1)c1ccccc1 [Compound 61]
Not satisfied
O=C(NO)c1cnc(NC(c2ccccc2)c2ccccc2)nc1
Satisfied

Does this compound meet the criterion IC50 < 5 nM? O=C(NO)c1cnc(NC(c2ccc(F)cc2)c2ccc(F)cc2)nc1
Satisfied

Does this compound meet the criterion IC50 < 5 nM? COc1cc(OC)cc(C2(Nc3ncc(C(=O)NO)cn3)CC2)c1
Satisfied

Does this compound meet the criterion IC50 < 5 nM? COc1ccc(C2(Nc3ncc(C(=O)NO)cn3)CCCCC2)cc1
Not satisfied

Does this compound meet the criterion IC50 < 5 nM? O=C(NO)c1cnc(NCc2ccc(F)c(Cl)c2)nc1
Satisfied

###

- target-or-test-system: HDAC2 (Homo sapiens (Human))
- Sequence (Q92769 whole entry): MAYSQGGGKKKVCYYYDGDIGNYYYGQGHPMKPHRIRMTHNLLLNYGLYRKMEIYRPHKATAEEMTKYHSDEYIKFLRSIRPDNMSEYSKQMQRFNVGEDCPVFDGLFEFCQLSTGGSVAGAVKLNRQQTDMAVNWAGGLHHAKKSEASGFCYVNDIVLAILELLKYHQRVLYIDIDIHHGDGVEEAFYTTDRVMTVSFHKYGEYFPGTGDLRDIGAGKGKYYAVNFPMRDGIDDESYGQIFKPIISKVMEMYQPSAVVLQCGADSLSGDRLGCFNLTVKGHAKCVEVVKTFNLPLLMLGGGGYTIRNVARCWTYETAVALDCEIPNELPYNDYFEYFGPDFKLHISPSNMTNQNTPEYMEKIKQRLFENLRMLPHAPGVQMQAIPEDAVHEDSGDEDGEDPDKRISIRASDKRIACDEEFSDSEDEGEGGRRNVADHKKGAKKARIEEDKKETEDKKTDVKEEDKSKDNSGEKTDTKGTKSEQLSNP
- procedure-text: HDAC enzyme assay, HDAC2
- condition: ratio HDAC2/HDAC6
readout: HDAC2 fold over HDAC6 IC50 (selectivity for HDAC6)

COc1ccc(C2(Nc3ncc(C(=O)NO)cn3)CCCCC2)cc1
(45x)
Cc1cc(C2(Nc3ncc(C(=O)NO)cn3)CC2)ccc1F
(4x)

###

- target-or-test-system: UniProt:O15379
- procedure-text: HDAC enzyme assay, HDAC3
- condition: read-out: HDAC3 IC50
readout: pIC50
# pIC50 is unitless: minus log10 of the molar concentration; print number only

Example entries begin here.
COc1ccc(C2(Nc3ncc(C(=O)NO)cn3)CCCC2)cc1
6.19
O=C(NO)c1cnc(Nc2cccc(N3CCOCC3)c2)nc1
6.28
O=C(NO)c1cnc(NC2(c3ccc(F)cc3)CCCC2)nc1
5.67
O=C(NO)c1cnc(NC2(c3cccc(OC(F)(F)F)c3)CC2)nc1
7.24
O=C(NO)c1cnc(NCCc2ccccc2Cl)nc1
6.31

// pIC50 lookup, key: O=C(NO)c1cnc(NCCc2ccccc2)nc1
6.49

// pIC50 lookup, key: O=C(NO)c1cnc(NC2c3ccccc3-c3ccccc32)nc1
5.88

// pIC50 lookup, key: O=C(NO)c1cnc(Nc2ccc([N+](=O)[O-])c(C(F)(F)F)c2)nc1
6.37

// pIC50 lookup, key: Cc1cc(C2(Nc3ncc(C(=O)NO)cn3)CC2)ccc1F
7.19

// pIC50 lookup, key: O=C(NO)c1cnc(Nc2cccc(-c3ccncc3)c2)nc1
6.85

// pIC50 lookup, key: CC(C)(Nc1ncc(C(=O)NO)cn1)c1ccc(C(F)(F)F)cc1F
5.54
